# TGI listing for each entry below
# Test system: CAKI-1 renal
# test_details: NCI tumour cell line growth inhibition, 48 h
Supply the numeric figure in µM, leaving out any unit text.

compound: O=C(CCc1ccc(O)c(O)c1)c1ccc(O)c(O)c1O
TGI / µM: 37.9
//
compound: C/C=C/C/C=C/CCC(=O)C1OC1C(N)=O (stereo unspecified)
TGI / µM: 29.8
//
compound: C[C@]12CC[C@H]3[C@@H](CC=C4C[C@@H](O)CC[C@@]43C)[C@@H]1C/C(=C\c1cccc(OCCCn3ccnc3)c1)[C@@H]2O
TGI / µM: 34.5
//
compound: O=C(NN1C(=O)/C(=C/c2ccc(Cl)cc2)N=C1c1ccccc1)c1c(Cl)c(Cl)c(Cl)c(Cl)c1-c1nc2ccccc2[nH]1
TGI / µM: 78.8

Data request: # assay system CAKI-1 renal: give TGI of `O=C1C=CC(=O)N1c1ccc2c(c1)Cc1cc(NC(=O)C(F)(F)F)ccc1-2`
Data returned: 32.7

Data request: // fetch TGI for `N#CCc1[nH]nc2nc(SCc3ccccc3)nc(N3CCCCC3)c12` ; system: CAKI-1 renal
Data returned: 34.6

Data request: Enter measured TGI, system CAKI-1 renal, for the compound shown: `CN(C)CCNc1c([N+](=O)[O-])cc2c3c(cccc13)C(=O)N(CCN(C)C)C2=O`
Data returned: 6.6

Data request: Please report TGI with CAKI-1 renal for item `O=C1c2scnc2-c2nccc3c2c1nc1ccccc13` .
Data returned: 3.83

Data request: Please report the measured TGI for `Cc1ccc(-c2nc3nc(-c4ccc(Cl)cc4)nc(N4CCCNCC4)c3o2)cc1` tested on CAKI-1 renal.
Data returned: 2.88

Data request: Name the recorded TGI of CC(C)[Si](OCC/C=C/C1CCC(=O)C1C(O)C1CCCCC1)(C(C)C)C(C)C (stereo unspecified) , assay system CAKI-1 renal.
Data returned: 28.5

----------
# Test system: MCF7 breast
# test_details: NCI tumour cell line growth inhibition, 48 h; in the data active = GI50 below about 0.43 µM; inactive = the rest
Output constraint: value belongs to active, inactive

Some solved entries appear below for comparison.
compound: CC1=C([Se]CC(OC(=O)[C@@H](CSSC(C)(C)C)NC(=O)C(C)(C)C)C(=O)NCCCCCC(=O)OCc2ccccc2)C(=O)c2ccccc2C1=O (stereo not given in full)
class_label: inactive
--
compound: O=C(Nc1cccc(-c2nc3ccccc3[nH]2)c1)c1cccc(NC(=O)c2ccco2)c1
class_label: inactive
--
compound: COc1cc2c(cc1OCCCCCN1CCN(c3cc(=O)oc4c(C)c(OC)ccc34)CC1)N=C[C@@H]1CCCN1C2=O
class_label: active
--
compound: COc1cc2c3c(n(CCCn4ccnc4)c(=O)c2cc1OC)-c1ccccc1C3=O
class_label: active

Okay, now this compound:
Data request: Which outcome was assigned to `Cc1c(N(C(=O)c2cc(-c3cc(Cl)ccc3C(=O)N3Cc4ccccc4C[C@H]3CN3CCOCC3)n(C)c2C)c2ccc(O)cc2)cc(C#N)n1C` in this test?
Data returned: inactive

----------
# Lookup of reported TGI keyed by entry
# Test system: IGROV1 ovarian
# test_details: NCI tumour cell line growth inhibition, 48 h
Answer with a number only, understood to be in µM.

Below are worked cases with known answers.
compound: CN1CCN(CCCOc2ccc3ncnc(Nc4ccc(Oc5cccc(C(F)(F)F)c5)c(Cl)c4)c3c2)CC1
TGI (µM): 2.43

compound: O=c1oc2ccccc2c(O)c1C(c1ccc2ccccc2c1)c1c(O)c2ccccc2oc1=O
TGI (µM): 90.3

compound: CCOP(=O)(CCC(O)CNc1nc(N)nc(Cl)c1N=Nc1ccc(Cl)cc1)OCC (stereo not given)
TGI (µM): 33

Data request: State its TGI: `C=C1C(=O)O[C@H]2[C@H]1CC/C(COC(=O)N[C@@H](Cc1c[nH]c3ccccc13)C(=O)OC)=C\CC[C@@]1(C)O[C@@H]21`
Data returned: 2.67

Source listed as PubChem BioAssay (NCI).
